Assignment: determine reported Lym for the given compounds.
# Organism: Rattus norvegicus
# experiment_description: Open TG-GATES - Regimen: Daily Repeat
# Type: toxicity, organism-based, Sprague-Dawley
# Parameters: regimen Daily Repeat, gender Male, age 6 weeks
# experimental_conditions: in vivo, po, 0 mg/kg, […], tissue Blood, route gavage, dose level Control, time 28 day
The answer is to be given in %; state only the numeric part.

Exercise: Provide one value: measured Lym of CN(CCOc1ccc(CC2SC(=O)NC2=O)cc1)c1ccccn1.O=C(O)/C=C\C(=O)O (configuration not stated) [ROSIGLITAZONE MALEATE]
Solution: 75.2

Exercise: Give Lym for the following compound: CCN(CC)C(=S)SSC(=S)N(CC)CC
Solution: 83.2

Exercise: Supply Lym value. Item: Nc1ccc(Cc2ccc(N)cc2)cc1
Solution: 78

Exercise: Entry O=c1ccc2ccccc2o1 needs its Lym filled in; supply it.
Solution: 79.6

Exercise: Look up and state reported Lym for CCCCNC(=O)NS(=O)(=O)c1ccc(C)cc1 [TOLBUTAMIDE]
Solution: 80.2

Exercise: In one line, give reported Lym of the entry COc1ccc([C@@H]2Sc3ccccc3N(CCN(C)C)C(=O)[C@@H]2OC(C)=O)cc1 .
Solution: 77

Exercise: Tell us which Lym value is on record for CCCCC1C(=O)N(c2ccccc2)N(c2ccccc2)C1=O
Solution: 82.8
